Test system: pigweed (Amaranthus retroflexus)
Assay: Test A preemergence, visual injury rating
Assay type: in vivo
Conditions: 31 g ai/ha, 0 to 100 scale, 0 no effect, 100 complete control
Measured Plant response rating, Pigweed, listed per entry for reference.

{"Molecule": "CCCC(=O)c1c(C#N)cccc1Oc1ncc(Cl)cn1", "Plant response rating, Pigweed": 0}
{"Molecule": "CC(C)(C)OC(=O)c1c(F)cccc1Oc1ncc(Cl)cn1", "Plant response rating, Pigweed": 30}
{"Molecule": "FC(F)(F)C(F)(F)COCc1c(Br)cccc1Oc1ncc(Cl)cn1", "Plant response rating, Pigweed": 0}
{"Molecule": "O=C(OCCC(F)(F)F)c1cc(C(F)(F)F)ccc1Oc1ncc(Cl)cn1", "Plant response rating, Pigweed": 0}
{"Molecule": "CCCCCC(C#N)c1ccccc1Oc1ncc(Cl)cn1 (stereo not shown)", "Plant response rating, Pigweed": 0}
{"Molecule": "N#CC(CCCC(F)(F)F)c1ccccc1Oc1ncc(Cl)cn1 (stereo not shown)", "Plant response rating, Pigweed": 100}
{"Molecule": "CC(=NOC(C)C)c1c(F)cccc1Oc1ncc(Cl)cn1", "Plant response rating, Pigweed": 0}
{"Molecule": "O=C(OCCCl)c1c(Br)cccc1Oc1ncc(Cl)cn1", "Plant response rating, Pigweed": 50}
{"Molecule": "O=C(CCCCC(F)(F)F)c1c(Br)cccc1Oc1ncc(Cl)cn1", "Plant response rating, Pigweed": 90}
{"Molecule": "N#Cc1cccc(Oc2ncc(Cl)cn2)c1COCC(F)(F)F", "Plant response rating, Pigweed": 90}
